- MEASURED ON: HIV-1 envelope glycoprotein gp120 of virus VS001 (HIV-1)
- EXPERIMENTAL PROTOCOL: cell-based or functional assay

BINDER | neutralization IC50 / mg/L
3.1.15-1 (antibody, human IgG1, kappa, V domains shown) VH: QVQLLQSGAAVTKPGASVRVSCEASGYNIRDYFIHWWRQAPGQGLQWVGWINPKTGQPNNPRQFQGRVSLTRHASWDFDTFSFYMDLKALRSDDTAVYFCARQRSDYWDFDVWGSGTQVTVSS VL: DIQMTQSPSSLSARVGDTATITCQANGYLNWYQQRRGKAPKLLIYDGSKLERGVPARFSGRRWGQEYTLTINNLQPEDVATYFCQVYEFFGPGTRLDLKR | 0.49
2.3.7-1 (antibody, human IgG1, kappa, V domains shown) VH: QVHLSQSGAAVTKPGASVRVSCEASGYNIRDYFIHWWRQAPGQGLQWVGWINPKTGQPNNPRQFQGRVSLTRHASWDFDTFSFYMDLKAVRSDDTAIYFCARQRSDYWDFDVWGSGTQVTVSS VL: DIQMTQSPSSLSARVGDRATITCQANGYLNWYQQRRGKAPKLLIYDGSKLERGVPARFSGSRWGQEYTLTISSLQPEDVATYFCQVYEFFGPGTRLDLKR | 0.47
3.1.9-1 (antibody, human IgG1, kappa, V domains shown) VH: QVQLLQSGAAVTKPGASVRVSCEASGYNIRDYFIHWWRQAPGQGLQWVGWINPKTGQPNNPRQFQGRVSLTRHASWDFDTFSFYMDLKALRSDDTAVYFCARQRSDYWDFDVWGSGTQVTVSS VL: DIQMTQSPSSLSARVGDTATITCQANGYLNWYQQRRGKAPKLLIYDGSKLERGVPARFSGRRWGQEYNLTINNLQPEDVATYFCQVYEFFGPGTRLDLKR | 0.16
